# tested-on: T1, human PD-L1-Fc protein (human, UniProt Q9NZQ7 19-239)
# T1 construct: Bought from R&D Systems; also called immobilised PD-L1-Fc; not shown: Fc part of the bought fusion protein, not described
# assay-explanation: BIAcore off rate, unpurified periplasmic extract Fab on PD-L1, pH 7.4
property-measured: koff

{"binder": "Fab 8G08 (Fab, V domains shown, Purified Fab prepared from IgG with the Pierce kit; also called 8G08 Fab) VH: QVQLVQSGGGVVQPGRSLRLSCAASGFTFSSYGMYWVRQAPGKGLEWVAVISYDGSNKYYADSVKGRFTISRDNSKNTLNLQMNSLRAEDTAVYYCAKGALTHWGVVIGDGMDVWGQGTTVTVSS VL: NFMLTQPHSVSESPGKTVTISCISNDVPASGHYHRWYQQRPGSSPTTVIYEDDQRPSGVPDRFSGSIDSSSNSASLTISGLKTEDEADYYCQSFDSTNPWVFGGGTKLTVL", "property-measured": "koff", "obs-value": "0.00308 s⁻¹"}
{"binder": "Fab 8B06 (Fab, V domains shown, Purified Fab prepared from IgG with the Pierce kit; also called 8B06 Fab) VH: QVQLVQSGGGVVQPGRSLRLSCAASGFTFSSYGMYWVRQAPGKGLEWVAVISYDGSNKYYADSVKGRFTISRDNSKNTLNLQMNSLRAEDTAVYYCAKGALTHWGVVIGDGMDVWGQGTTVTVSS VL: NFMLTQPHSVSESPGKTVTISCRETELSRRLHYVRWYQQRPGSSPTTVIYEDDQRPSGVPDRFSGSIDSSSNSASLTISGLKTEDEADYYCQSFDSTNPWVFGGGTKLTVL", "property-measured": "koff", "obs-value": "0.0105 s⁻¹"}
